Recorded Ki for the following molecules
Biological target: Serotonin 2 (5-HT2) receptor (Rattus norvegicus, UniProt P30994+P08909+P14842)
Test: Binding affinity towards 5-hydroxytryptamine 2 receptor using [3H]- 1-(4-bromo-2,5-dimethoxy-phenyl)-2-aminopropane (D) as radioligand
Type: protein assay
Give just the number in nM; leave the unit off.

CCCN(CCC)C1CCc2cccc(O)c2C1 (centres undefined); 635

Name the reported Ki value associated with the molecule CCCN(CCC)CCc1c[nH]c2ccc(OC)cc12
7.1

Okay, and CCCN(CCC)CCc1c[nH]c2ccc(O)cc12 ?
1

Okay, and CCCN(CCC)C1CCc2cccc(OC)c2C1 (centres undefined) ?
280

====

Target: 5-hydroxytryptamine receptor 1A (Rattus norvegicus, UniProt P19327)
Sequence (P19327 whole entry): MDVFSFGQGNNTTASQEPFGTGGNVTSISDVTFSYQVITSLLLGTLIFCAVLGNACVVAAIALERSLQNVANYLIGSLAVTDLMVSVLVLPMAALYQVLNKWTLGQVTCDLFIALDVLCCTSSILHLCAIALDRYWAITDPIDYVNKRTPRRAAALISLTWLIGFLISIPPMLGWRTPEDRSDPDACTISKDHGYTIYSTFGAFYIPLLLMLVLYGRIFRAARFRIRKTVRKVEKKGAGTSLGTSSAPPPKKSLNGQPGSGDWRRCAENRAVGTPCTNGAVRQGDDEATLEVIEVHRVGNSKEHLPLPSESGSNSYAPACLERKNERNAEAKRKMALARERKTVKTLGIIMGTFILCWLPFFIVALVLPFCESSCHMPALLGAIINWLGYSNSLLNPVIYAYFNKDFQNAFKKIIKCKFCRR
Assay: Binding affinity towards 5-hydroxytryptamine 1A receptor
Recorded pKi for the following compounds
Lab note — pKi values are minus log10 of concentrations in M.

# example entries with known answers
CCCN(CCC)CCc1c[nH]c2ccc(OC)cc12; 8.40
CCCN(CCC)CCc1c[nH]c2ccc(O)cc12; 8.15
COc1ccc2[nH]cc(CCN(C)C)c2c1 [MEBUFOTENIN]; 8.11

Give recorded pKi with 5-hydroxytryptamine receptor 1A (Rattus norvegicus, UniProt P19327) for the following compound: CCCN(CCC)C1CCc2cccc(OC)c2C1 (centres undefined)
8.89

====

Target: Serotonin 2 (5-HT2) receptor (Rattus norvegicus, UniProt P30994+P08909+P14842)
Assay: Binding affinity towards 5-hydroxytryptamine 2 receptor using [3H]- ketanserin as radioligand
Type: protein assay
Quantity name: Ki (nM)
Give just the number in nM; leave the unit off.

# example entries with known answers
CCCN(CCC)CCc1c[nH]c2ccc(OC)cc12; 655
CCCN(CCC)C1CCc2cccc(OC)c2C1 (centres undefined); 3050
CCCN(CCC)C1CCc2cccc(O)c2C1 (centres undefined); 5350

Turning now to a further molecule:
Give recorded Ki with Serotonin 2 (5-HT2) receptor (Rattus norvegicus, UniProt P30994+P08909+P14842) for the following molecule: CCCN(CCC)CCc1c[nH]c2ccc(O)cc12
450

====

Recorded pKi for the following compounds
Molecular target: 5-hydroxytryptamine receptor 1B (Rattus norvegicus)
Assay: Evaluated for binding affinity towards 5-hydroxytryptamine 1B receptor
Lab note — pKi values are minus log10 of concentrations in M.

Name the reported pKi value associated with the compound CCCN(CCC)CCc1c[nH]c2ccc(OC)cc12
5.74

Okay, and COc1ccc2[nH]cc(CCN(C)C)c2c1 ?
6.46

Okay, and CCCN(CCC)CCc1c[nH]c2ccc(O)cc12 ?
5.37

====

Biological target: 5-hydroxytryptamine receptor 1B (Rattus norvegicus, UniProt P28564)
Sequence (P28564 whole entry): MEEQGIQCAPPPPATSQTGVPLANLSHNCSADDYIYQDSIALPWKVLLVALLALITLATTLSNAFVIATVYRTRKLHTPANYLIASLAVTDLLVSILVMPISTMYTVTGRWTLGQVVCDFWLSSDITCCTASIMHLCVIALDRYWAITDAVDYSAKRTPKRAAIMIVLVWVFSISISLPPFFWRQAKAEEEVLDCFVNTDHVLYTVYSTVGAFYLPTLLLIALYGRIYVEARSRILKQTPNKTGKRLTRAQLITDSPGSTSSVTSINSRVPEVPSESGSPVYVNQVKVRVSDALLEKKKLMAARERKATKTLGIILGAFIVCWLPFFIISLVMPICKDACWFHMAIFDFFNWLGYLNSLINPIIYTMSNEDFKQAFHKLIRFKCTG
Test: Binding affinity against 5-HT1B serotonin receptor in rat striatum
Format: tissue-based
Quantity name: Ki (nM)
Give just the number in nM; leave the unit off.

Name the reported Ki value associated with the molecule COc1cc(CC(C)N)c(OC)cc1C (stereo unspecified) [DOM]
2070
